These data points were gathered from patent US20190248900A1.

# system tested: T1, M9
# T1 construct: also called PD1 mutant M9
# method notes: scFv-phage ELISA
reported metric: OD490
Kindly provide the number alone.

PD1-51D9 (antibody, V domains shown, scFv-phage in the screening ELISA; whole IgG in the other assays) VH: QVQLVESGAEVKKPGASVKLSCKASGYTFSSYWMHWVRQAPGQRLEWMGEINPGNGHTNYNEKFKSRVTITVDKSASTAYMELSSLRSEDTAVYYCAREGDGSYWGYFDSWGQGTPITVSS VL: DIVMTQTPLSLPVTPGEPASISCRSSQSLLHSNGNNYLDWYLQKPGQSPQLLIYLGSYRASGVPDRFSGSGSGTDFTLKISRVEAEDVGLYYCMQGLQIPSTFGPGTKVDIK :: 0.3

Next item in the queue.
Need OD490, item PD1-49B9 (antibody, V domains shown, scFv-phage in the screening ELISA; later whole IgG) VH: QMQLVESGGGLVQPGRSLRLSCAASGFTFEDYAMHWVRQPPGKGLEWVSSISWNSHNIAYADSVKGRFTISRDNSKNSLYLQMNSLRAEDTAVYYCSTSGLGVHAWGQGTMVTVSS VL: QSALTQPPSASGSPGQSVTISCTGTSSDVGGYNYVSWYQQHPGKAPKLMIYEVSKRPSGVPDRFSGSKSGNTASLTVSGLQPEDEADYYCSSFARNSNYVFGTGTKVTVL
3.9
